Cited source for all entries: PubChem BioAssay AID1438

Recorded inhibition for the following compounds
system-under-test: Runt-related transcription factor 1 (Homo sapiens) + Core-binding factor subunit beta (Homo sapiens) (UniProt Q01196+Q13951)
Sequence (Q01196 whole entry, looked up, the tested form may be a part): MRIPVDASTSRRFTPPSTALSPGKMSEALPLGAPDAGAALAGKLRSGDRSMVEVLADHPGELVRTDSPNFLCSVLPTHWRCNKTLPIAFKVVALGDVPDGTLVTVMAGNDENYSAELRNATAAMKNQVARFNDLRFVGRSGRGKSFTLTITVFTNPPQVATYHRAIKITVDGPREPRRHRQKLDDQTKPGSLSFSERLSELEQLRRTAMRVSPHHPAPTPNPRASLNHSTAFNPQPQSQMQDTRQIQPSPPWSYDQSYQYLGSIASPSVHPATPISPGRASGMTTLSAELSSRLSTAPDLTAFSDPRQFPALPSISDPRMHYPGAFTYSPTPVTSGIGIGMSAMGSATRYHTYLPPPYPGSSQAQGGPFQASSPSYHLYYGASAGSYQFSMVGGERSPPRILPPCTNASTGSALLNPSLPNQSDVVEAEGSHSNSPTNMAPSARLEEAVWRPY
Sequence (Q13951 whole entry, looked up, the tested form may be a part): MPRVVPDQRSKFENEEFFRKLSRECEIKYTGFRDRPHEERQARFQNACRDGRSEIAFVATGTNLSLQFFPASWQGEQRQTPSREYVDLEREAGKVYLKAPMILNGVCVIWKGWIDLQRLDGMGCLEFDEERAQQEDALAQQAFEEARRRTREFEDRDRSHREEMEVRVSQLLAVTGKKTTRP
assay-details: Runt domain/CBFb-SMMHC interaction disruptors – biochemical, TR-FRET (AID 1438)
condition-parameters: at 20 µM, active compounds read high
Out of some 2,200 compounds screened, about 45 (2%) were called active. These entries were drawn from the full list. Entries with a potency or affinity are not part of this list.
Only the number, expressed in %, is required.

Use the examples below as a reference point.
# smiles-str, recorded-value
measured = [
    ("COc1nc(N)c(S(=O)(=O)c2ccccc2)cc1C#N", 8.9),
    ("CCCOc1c(Br)cc(C2C3=C(CCCC3=O)N(CC)C3=C2C(=O)CCC3)cc1OC", -13.6),
    ("COCCCn1c(=O)/c(=C\\c2ccc(OC(F)F)c(OC)c2)s/c1=C(/C#N)C(=O)NCCOC", -12.1),
    ("CCCOc1c(Br)cc(C2C3=C(CCCC3=O)N(C)C3=C2C(=O)CCC3)cc1OC", 41.4),
]

Now, please, on to the next compound.
**Query** # get_value(readout='inhibition', item= "CCOC(=O)C1=C(Cc2ccc(C)cc2)C(=O)c2ccccc2C1=O" )
**Result** 45.1

* * *

system-under-test: Runt-related transcription factor 1 (Homo sapiens) + Core-binding factor subunit beta (Homo sapiens) (UniProt Q01196+Q13951)
assay-details: Runt domain/CBFb-SMMHC interaction disruptors – biochemical, TR-FRET (AID 1438)
condition-parameters: at 20 µM, active compounds read high
Hit rate of the full screen: of about 2,200 compounds, about 45 (2%) were called active. The list is a sample of the results. Potency and affinity values are given separately.
Label fulfilled when inhibition >= 30%; otherwise not fulfilled.

# compound, category
data = [
    ("COc1ccc(CCn2c(=N)c(C(=O)NCc3ccco3)cc3c(=O)n4cccc(C)c4nc32)cc1", "not fulfilled"),
    ("N=c1c(C(=O)NCc2ccc3c(c2)OCO3)cc2c(=O)n3ccccc3nc2n1Cc1cccnc1", "fulfilled"),
    ("Cc1ccc(C2C=C(c3ccccc3)Nc3nc(N4C(=O)CCC4=O)nn32)cc1 (centres undefined)", "not fulfilled"),
    ("Cc1ccccc1C(=O)N=c1c(C#N)cc2c(=O)n3cccc(C)c3nc2n1Cc1ccco1", "fulfilled"),
    ("CCOC(=O)c1cc2c(=O)n3ccccc3nc2n(Cc2ccco2)c1=NC(=O)c1ccc(OC)cc1", "not fulfilled"),
]

**Query** Answer whether inhibition of "COCCCn1c(=NC(=O)c2ccncc2)c(C#N)cc2c(=O)n3cccc(C)c3nc21" is greater than or equal to 30%.
**Result** not fulfilled

**Query** Proceed to "CCOC(=O)c1cc2c(=O)n3ccccc3nc2n(Cc2ccccc2)c1=N"
**Result** fulfilled

* * *

system-under-test: Runt-related transcription factor 1 (Homo sapiens) + Core-binding factor subunit beta (Homo sapiens) (UniProt Q01196+Q13951)
assay-details: Runt domain/CBFb-SMMHC interaction disruptors – biochemical, TR-FRET (AID 1438)
condition-parameters: at 20 µM
The whole screen tested about 2,200 compounds, of which about 45 (2%) were called active. No rule for the calls is given here. The list is a sample of the results. Measured potencies and affinities stand elsewhere.
Your reply should match one of these outcome classes. active, inactive

Reference set (8 entries):
# compound, category
data = [
    ("COc1ccc(OC)c(N=c2ssnc2Cl)c1", "inactive"),
    ("CCn1c(O)c(C=Nc2ccccc2)sc1=S", "inactive"),
    ("Cc1cc(=O)oc2cc(OC(=O)c3cncc(Br)c3)ccc12", "inactive"),
    ("CC(=O)Nc1sc2c(c1C(N)=O)CCN(Cc1ccccc1)C2", "inactive"),
    ("O=C(Nc1nc2c(s1)CN(Cc1ccccc1)CC2)C1CCCC1", "inactive"),
    ("COCCN1C=C(C(=O)OC)C(c2cc(Br)c(OC)c(OC)c2)C(C(=O)OC)=C1", "inactive"),
    ("CCCn1c(C)nc2c(c1=O)c1nc3ccccc3nc1n2CCC1=CCCCC1", "inactive"),
    ("Cc1cc(C)cc(Oc2nc3ccccn3c(=O)c2/C=C(\\C#N)C(=O)NC2CCS(=O)(=O)C2)c1 (stereo not drawn)", "inactive"),
]

**Query** Any idea what this test logged for "Cc1ccc2[nH]cc(C(=O)CN3CCC4(CC3)OCCO4)c2c1" ?
**Result** inactive

**Query** Proceed to "CCN1/C(=C/C(=O)c2ccco2)Sc2ccccc21"
**Result** inactive

**Query** Proceed to "Cc1cccn2c(=O)c3cc(C(=O)NCc4ccco4)c(=N)n(C(C)C)c3nc12"
**Result** inactive

**Query** Proceed to "Cc1nc2c(c(=O)n1Cc1ccco1)c1nc3ccccc3nc1n2Cc1ccccc1"
**Result** active

**Query** Proceed to "COCCCNC(=S)NCCCNc1nc2cc(C)cc(C)c2cc1C#N"
**Result** inactive

**Query** Proceed to "CCOC(=O)c1cc2c(=O)n3ccccc3nc2n(CCCOC)c1=NC(=O)c1ccncc1"
**Result** inactive

* * *

Recorded inhibition for the following compounds
system-under-test: Runt-related transcription factor 1 (Homo sapiens) + Core-binding factor subunit beta (Homo sapiens) (UniProt Q01196+Q13951)
assay-details: Runt domain/CBFb-SMMHC interaction disruptors – biochemical, TR-FRET (AID 1438)
condition-parameters: at 20 µM, active compounds read high
The campaign covered roughly 2,200 compounds. About 45 (2%) were called active. Not all results are given here. Measured potencies and affinities stand elsewhere.
Only the number, expressed in %, is required.

# compound, unit-symbol, inhibition
measured = [
    ("COCCCNC(=O)c1cc2c(=O)n3cccc(C)c3nc2n(C(C)C)c1=N", "%", 1.4),
    ("N#Cc1c(NC(=O)CSc2ncc(-c3ccccc3)n2CC2CCCO2)sc2c1CCCC2 (configuration not stated)", "%", -3.3),
    ("Cc1ccc2nc3c(cc(S(=O)(=O)c4ccccc4)c(=N)n3Cc3ccco3)c(=O)n2c1", "%", -7.9),
    ("C=C(C)CNC(=S)Nc1sc2c(c1C(=O)OCC)CC(C)(C)OC2", "%", -9.8),
    ("N#Cc1c(N)n(-c2cccc(C(=O)O)c2)c2nc3ccccc3nc12", "%", -8.2),
    ("N#Cc1cc2cc3c(cc2nc1NCCNC(=S)NCCCN1CCOCC1)OCO3", "%", -18.1),
    ("COC(=O)C1C(O)CCC2CN3CCc4c([nH]c5ccccc45)C3CC21 (configuration not stated)", "%", -11.7),
    ("COC(=O)Cc1cc(=O)oc2cc(O)ccc12", "%", 32.6),
    ("CCc1nnc(NC(=O)c2sc3nc4c(cc3c2N)CCCCCC4)s1", "%", 38.3),
    ("O=C(Cn1c2ccccc2c(=O)c2ccccc21)Nc1ccccc1F", "%", -15.4),
]

**Query** # get_value(readout='inhibition', item= "CCCn1c(=N)c(S(=O)(=O)c2ccccc2)cc2c(=O)n3ccccc3nc21" )
**Result** -6.9

**Query** Proceed to "COc1ccc(OCCn2cc(/C=C(\C#N)C(=O)NCc3ccco3)c3ccccc32)cc1"
**Result** -10.8

**Query** Proceed to "O=C(Cc1nc2ccccc2s1)c1ccc(O)cc1O"
**Result** 15.1

**Query** Proceed to CCOC(=O)C1=C(CSc2nc3c(cc2C#N)CN(C)CC3)OC(N)=C(C#N)C1c1ccccc1 (configuration not stated)
**Result** 29.2

**Query** Proceed to "Cc1cccn2c(=O)c3cc(S(=O)(=O)c4ccc(F)cc4)c(=N)n(Cc4ccco4)c3nc12"
**Result** -6.5

**Query** Proceed to Clc1ccc(C2=NN(c3ccccc3)C(c3ccco3)C2)cc1 (configuration not stated)
**Result** 37.8

**Query** Proceed to "O=C(CCC(=O)N/N=C/c1cc(Cl)cc(Cl)c1O)NCc1ccccc1"
**Result** -4.9

* * *

system-under-test: Runt-related transcription factor 1 (Homo sapiens) + Core-binding factor subunit beta (Homo sapiens) (UniProt Q01196+Q13951)
assay-details: Runt domain/CBFb-SMMHC interaction disruptors – biochemical, TR-FRET (AID 1438)
condition-parameters: at 20 µM
About 45 (2%) of roughly 2,200 compounds were called active. The rule behind the calls is not given here. These entries were drawn from the full list. Results with a measured potency or affinity are listed apart.
Your reply should match one of these outcome classes. active, inactive

# compound, category
measured = [
    ("COc1ccc(-c2cc(C(F)(F)F)n3nc(N)nc3n2)cc1", "inactive"),
]

**Query** Any idea what this test logged for "COCCCNC(=O)c1c(N)n(-c2ccc(S(N)(=O)=O)cc2)c2nc3ccccc3nc12" ?
**Result** inactive

**Query** Proceed to "CC(C)Cn1c(N)c(C(=O)NCc2cccs2)c2nc3ccccc3nc21"
**Result** inactive

**Query** Proceed to "COCCCNC(=O)c1c(N)n(-c2ccccc2)c2nc3ccccc3nc12"
**Result** inactive

**Query** Proceed to "CCOC(=O)c1c(NC(=O)CSc2ncccn2)sc2c1CCN(Cc1ccccc1)C2"
**Result** inactive

**Query** Proceed to "COc1ccc(CCn2c(N)c(C(=O)NCc3ccco3)c3nc4ccccc4nc32)cc1"
**Result** inactive

**Query** Proceed to CC1=CC(c2ccc(Cl)cc2)n2nc(NC(=O)CCC(=O)O)nc2N1 (configuration not stated)
**Result** inactive

**Query** Proceed to "CN(C)c1nc(-c2cccs2)cc(C(F)(F)F)c1C#N"
**Result** inactive

**Query** Proceed to "Cc1ccc(C)c(OCCn2cc(/C=C(\C#N)C(=O)NCc3ccco3)c3ccccc32)c1"
**Result** inactive

**Query** Proceed to "COCCN1C=C(C(=O)OC)C(c2ccccc2C(F)(F)F)C(C(=O)OC)=C1"
**Result** inactive

**Query** Proceed to COCCOC(=O)C1=C(C)NC2=C(C(=O)CC(C)(C)C2)C1c1cccnc1 (configuration not stated)
**Result** inactive
